melting point overview

Use these answered entries as a reference point.
molecule	melting point
CC(=O)OC(c1cscc1S(N)(=O)=O)C(C)F (centres undefined)	92 to 94 °C
Cc1cc(C)cc(NC(=O)Cc2ccc(OC3(C(=O)N[C@H](CC(C)C)C(=O)O)CCCC3)cc2)c1	119 to 120 °C
COC(=O)Cc1cccc(NC(=O)NCC(=O)N2[C@@H](c3ccccc3)SC[C@H]2C(=O)OC(C)(C)C)c1	69 °C
Cc1cccc(CNC(=O)c2nc3scc(COCc4ccc(C(=O)O)cc4)c3c(=O)[nH]2)c1	237 to 239 °C

Quick one: melting point of Cc1nccn1-c1nc(-c2ccc(Cl)cc2)c(CCCC(=O)NCCCl)o1 ?
131 to 132 °C

Quick one: melting point of O=C1CC(Nc2cc([N+](=O)[O-])ccc2Cl)=NN1c1c(Cl)cc(Cl)cc1Cl ?
278 to 280 °C

Quick one: melting point of CCN1C(=O)C(=CC=C2C=C3c4ccccc4CCN3C3=C2CCCC3)C(=O)N(CC)C1=S ?
320 °C

Quick one: melting point of Cc1[nH]c(=O)n(C(C)C)c1-c1ccc(C2CCCCC2)cc1 ?
274 °C

Quick one: melting point of CCCCCCCCCCCCOc1ccc2cc(C(C)C(=O)O)ccc2c1 (centres undefined) ?
96 to 97 °C

Origin of the recorded values: a melting point compilation (Tetko et al.; mined from patent text by program, amines drawn as free bases though some values may be those of a salt)
